FYI, the data here is from ChEMBL document CHEMBL1770086.

- assay-system: Peroxisome proliferator-activated receptor delta (Mus musculus) (UniProt P35396)
- Sequence (whole entry): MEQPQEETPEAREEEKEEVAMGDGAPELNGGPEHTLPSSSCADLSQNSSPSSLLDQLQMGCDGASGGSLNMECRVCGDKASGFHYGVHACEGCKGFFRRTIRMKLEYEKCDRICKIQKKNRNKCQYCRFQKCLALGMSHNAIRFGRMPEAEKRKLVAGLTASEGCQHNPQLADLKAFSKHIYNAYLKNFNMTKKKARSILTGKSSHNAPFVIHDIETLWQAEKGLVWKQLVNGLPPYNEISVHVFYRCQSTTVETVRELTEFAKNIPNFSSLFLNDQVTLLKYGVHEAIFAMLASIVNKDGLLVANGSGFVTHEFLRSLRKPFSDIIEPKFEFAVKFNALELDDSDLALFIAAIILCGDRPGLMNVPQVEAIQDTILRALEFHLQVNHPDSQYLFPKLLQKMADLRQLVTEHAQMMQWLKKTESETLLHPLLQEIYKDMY
- method-summary: Agonist activity at mouse PPARdelta expressed in CV1 cells co-expressing tk-PPRE-luciferase vector assessed as transient transactivation at 20 uM after 24 hrs by luciferase reporter gene transactivation assay relative to GW0742
- Assay type: functional, cell-based
- condition-description: CV-1
Active and inactive are the calls of the source. The rule behind the calls is not given here.
measured-quantity: Activity

Consider the following illustrative entries.
COC(=O)Cc1c[nH]c2ccc(OCCCN(C)c3nc4ccccc4o3)cc12 = inactive
COC(=O)Cc1cn(C(=O)c2ccc(Cl)cc2)c2ccc(OCCCN(C)c3nc4ccccc4o3)cc12 = 18.3%
CN(CCOc1ccc2cc(C(=O)O)n(C)c2c1)c1nc2ccccc2s1 = 27.9%
CCn1cc(CC(=O)O)c2cc(OCCN(C)c3nc4ccccc4o3)ccc21 = 32.9%

Activity reported for this compound COC(=O)Cc1cn(CC(=O)OC)c2ccc(OCCCN(C)c3nc4ccccc4o3)cc12 : inactive
